Where do the numbers come from? From PubChem BioAssay AID652126.

System: Nuclear hormone receptor DAF-12 (Strongyloides stercoralis)
Assay: S. stercoralis DAF-12 nuclear receptor activators, primary screen, cell-based, luminescence, HEK293, GRIP1 co-expression, lit1-tk-luc (AID 652126);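 note: 0% = DMSO-only wells and 100% = 3 µM delta7-dafachronic acid wells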
Settings: HEK293 ssDAF-12/GRIP1 lit1-tk-luc reporter, at 6.8 µM, % of 3 µM dafachronic acid response
The whole screen tested about 370,000 compounds, of which about 3,700 (1%) were called active.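 Rule for the calls: active = activation above the mean over all tested compounds plus 3 SD (cut at about 0.9% in these data); inactive = the rest.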 The sample as a whole holds a higher share of actives than the screen did.
# valid calls are active, inactive; nothing else

Solved entries:
CCOc1cc(C)c(S(=O)(=O)NCc2ccccn2)cc1C : active
CCOC(=O)C1CCN(C(=O)C(C)(C)NC(=O)Nc2ccccc2Cl)CC1 : inactive
CC(c1nnc(SCC(=O)Nc2sccc2C#N)n1-c1ccc(Cl)cc1)N(C)C (stereo not drawn) : inactive
COc1ccc(CSc2nnc(-c3cccc(C)c3)n2C)cc1 : inactive
CCOc1ccc(NC(=O)c2ccc(NC(=O)CN3C(=O)C(=O)N(CC(C)C)C3=O)cc2)cc1 : inactive
COc1ccc(/C=C(/NC(=O)c2ccco2)C(=O)Nc2ccc(C(C)=O)cc2)cc1 : inactive
O=C(N1CCOCC1)N1CC[C@H]2[C@H](CCCN2Cc2ccc(F)cc2)C1 : inactive
Cc1nc2ccc(NC(=O)C3CCCCC3)cc2s1 : inactive

Q: Each compound tested received a call. Report the one for Cc1csc(SCC(=O)Nc2sccc2C#N)n1 .
Result: active

Q: Fill in: this test's call for COc1ccc(CN(CCN2CCOCC2)C(=O)c2ccc(C)cc2)cc1OC is ___
Result: inactive

Q: Lab log entry: COc1ccc(C)cc1S(=O)(=O)NC1CCCCC1 — outcome as called in the assay?
Result: inactive

Q: Please indicate how the test categorized COC(=O)C1CN(CC(C)C)CCS(=O)(=O)N1Cc1ccc(F)cc1 (stereo not drawn) .
Result: inactive

Q: Hi, sorry to bother you, what did the test record for CCC[C@H]1C(=O)CC[C@@]23CCCN2C(=O)CCC[C@@H]13 ?
Result: inactive

Q: For Brc1ccc2nc(N3CCCC3)sc2c1 , what call appears in the results of this test?
Result: active

Q: Can you look up the reported call for CCC(=O)N1CCC(C(N)=O)(N2CCCCC2)CC1 for me?
Result: inactive

Q: What did this assay record as the result for C=CCn1c(=O)c(C(=O)Nc2ncccc2O)c(O)c2ccccc21 ?
Result: inactive

Q: // return assay outcome for C#CCNC(=O)C[C@H]1C[C@@]2(C(=O)OC)C(=C[C@H](C(C)C)O[C@@H]2C2CC2)N(Cc2ccco2)C1=O
Result: inactive

Q: Give the logged outcome of this assay for the following compound: CCOc1ccc(NC(=O)c2ccc(CSc3nnnn3C)cc2)cc1
Result: inactive

Q: How was C=CCn1c(SCC(N)=O)nnc1-c1ccccc1OC classified in this test?
Result: inactive

Q: For Cc1cc(NS(=O)(=O)c2ccc(NC(=O)CSc3nnc(-c4ccc(C(C)(C)C)cc4)n3Cc3ccco3)cc2)nc(C)n1 , what call appears in the results of this test?
Result: inactive

Q: // param item: CC(=O)c1cc(C#N)c(SCC(=O)Nc2nccs2)nc1C ; yields the recorded call
Result: inactive

Q: Fill in: this test's call for O=C1CCC2(CCC(c3ccc(Cl)cc3)CC2)N1CCO (stereo not drawn) is ___
Result: inactive

Q: Which outcome did this test record for the compound COC(=O)c1cc(S(=O)(=O)N2CCN(c3ccccc3C)CC2)cn1C ?
Result: inactive

Q: Recorded call for Cn1c(=O)c(C(=O)Nc2ncccn2)c(O)c2ccccc21 ?
Result: active

Q: Status in this test for O=C(O)c1cccc(N=NN2CCCCCC2)c1 ?
Result: active

Q: For CC(=O)Nc1ccc(OC[C@@H](O)CN2CCC(C(O)(c3ccccc3)c3ccccc3)CC2)cc1 , which call appears in the assay record?
Result: inactive

Q: Outcome logged for C=CCN1C(=O)[C@@H](CC(=O)N2CCN(C(=O)OCC)CC2)[C@]2(C(=O)OCC)CCCCC/C=C/12 in this assay:
Result: inactive

----------
Consider the following compounds and their measured activation readings.
System: Nuclear hormone receptor DAF-12 (Strongyloides stercoralis)
Assay: S. stercoralis DAF-12 nuclear receptor activators, primary screen, cell-based, luminescence, HEK293, GRIP1 co-expression, lit1-tk-luc (AID 652126);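 note: 0% = DMSO-only wells and 100% = 3 µM delta7-dafachronic acid wells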
Details: HEK293 ssDAF-12/GRIP1 lit1-tk-luc reporter, at 6.8 µM, stronger effect = higher value, % of 3 µM dafachronic acid response
In all, about 370,000 compounds went through this assay and about 3,700 (1%) were called active. Shown is part of a subset that was picked to be rich in actives.
Note: unit % is implicit; provide only the numeric part.

Q: What value of measured activation is listed for OC(COc1ccc2ccccc2c1)Cn1cncn1 (configuration not stated) ?
Result: -0.42

Q: Item under review: Nc1nonc1C(=O)NCCc1ccccc1 . Reported activation?
Result: -1.42

Q: Can you share its activation? I mean this compound: COc1ccc(NC(=O)CC2C(=O)OCC3CCCCN32)cc1Cl (configuration not stated)
Result: -1.7

Q: activation lookup needed for CC1CCCCC1NC(=O)c1cc(=O)[nH]c2ccccc12 (configuration not stated) , thanks.
Result: -0.66

Q: Using the record for CCOC(=O)[C@]12CCCCC/C=C\1N(Cc1ccc(OC)cc1)C(=O)[C@H]2CC(=O)N1CCOCC1 , report its activation.
Result: -0.98

Q: # input compound: Cc1nnsc1C(=O)NCc1c(F)cccc1Cl ; wanted: its activation
Result: -0.35

Q: What measured activation goes with COC(=O)C[C@@H]1CC[C@@H]2[C@H](COc3ccc(NC(=O)c4cccc(F)c4)cc3C(=O)N2C)O1 ?
Result: -1.32

Q: I have this compound here, Cc1ccc(-c2nc3ccccc3[nH]2)cc1N , and I need its recorded activation.
Result: 2.5

Q: Could you share which activation value was measured for O=S(=O)(NC1CCCCC1)c1ccc(F)c2ccccc12 ?
Result: -1.61

Q: Query (compound): Cc1ccc(NC(=O)Cc2nc(COC(=O)C(C)NS(=O)(=O)c3ccc(C)cc3)cs2)cc1 (configuration not stated) ; field requested: activation
Result: 0.98

Q: Need activation, item CC(=O)Nc1ccc(S(=O)(=O)NC(C)C(=O)OCC(=O)NC2CCCC2)cc1 (configuration not stated)
Result: -0.65

Q: Which activation is listed for Cc1ccc(/C=C/C(=O)O)cc1S(=O)(=O)N1CCC(Cc2ccccc2)CC1 ?
Result: -1.4

Q: Data request, read-out activation, for CCOc1ccc(CCNC(=O)C2=C(C)C(=O)OC23CCC(C)CC3)cc1OCC (configuration not stated)
Result: -0.29

Q: Which activation is listed for COc1ccc(S(=O)(=O)N2CCOCC2)cc1C(=O)NC1CCCCC1 ?
Result: -1.6

Q: Name the recorded activation for CCOC(=O)C1CCN(C(=O)C(C)(C)NC(=O)Nc2ccc(F)c(F)c2)CC1 .
Result: -1.1

Q: Quick check: activation of Nc1nc2c(Br)ccc(Br)c2cc1C(=O)NCCc1ccccc1 ?
Result: -1.14

Q: // activation lookup, key: CCOC(=O)c1nc(-c2ccc3c(c2)OCO3)[nH]c1C
Result: -1.3

----------
Test system: Nuclear hormone receptor DAF-12 (Strongyloides stercoralis)
Assay: S. stercoralis DAF-12 nuclear receptor activators, primary screen, cell-based, luminescence, HEK293, GRIP1 co-expression, lit1-tk-luc (AID 652126);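 note: 0% = DMSO-only wells and 100% = 3 µM delta7-dafachronic acid wells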
Conditions: HEK293 ssDAF-12/GRIP1 lit1-tk-luc reporter, at 6.8 µM, stronger effect = higher value, % of 3 µM dafachronic acid response
Out of some 370,000 compounds screened, about 3,700 (1%) were called active. What follows is part of a selection rich in actives, with near analogues and random picks from the rest.
property_measured: activation

Some solved cases for reference:
Cc1ccc(NC(=O)c2ccc(Cl)nc2)cc1S(=O)(=O)N1CCOCC1 : -1.53% (inactive)
CCN(CC)C(=O)CC[C@H]1CC[C@]2(CCCN(Cc3ccc(Cl)cc3)C2)O1 : -0.21% (inactive)
CCN(CC)c1nc(-c2ccccc2)cc(C(F)(F)F)c1C#N : -0.98% (inactive)
CCC(C)[C@@H](C(=O)OC)N(CCc1cn(Cc2ccccc2)nn1)S(=O)(=O)c1ccccc1Br (stereo partly specified) : -1.79% (inactive)
CCCCn1nc(C(=O)Nc2cccc(C(=O)NC3CC3)c2)c2ccccc2c1=O : -1.7% (inactive)

Q: Using the record for CCCn1nc(C(=O)Nc2ccc3nc(C)sc3c2)c2ccccc2c1=O , report its activation.
Result: 8.45% (active)

Q: Which activation reading was recorded for the molecule CC(C)C(=O)Nc1oc(-c2ccccc2)cc1C#N ?
Result: -1.13% (inactive)

Q: Suppose we examine the molecule COC(=O)C12C=C3CC(c4ccccc4)=C3C(=O)N1Cc1[nH]c3ccccc3c1C2 (stereo unspecified) ; what activation value has been reported?
Result: -1.07% (inactive)

Q: Endpoint output: activation of Cc1cnc(NC(=O)c2ccc(Cl)nc2)s1 . Value?
Result: 1.34% (active)

Q: Any idea what its activation is? The molecule is COc1ccc(C=C(C#N)C#N)c(CSc2ccccn2)c1
Result: 2.1% (active)

Q: Requested read-out: activation. Entry: Cc1ccsc1/C=N/NC(=O)Cc1cc(=O)[nH][nH]1
Result: 1.42% (active)
